collision cross section (N2): recorded values
Details: [M+Na]+; instrument: DT; stepped-field
Express the result in Å² but write the number alone.

The examples below pair each entry with its known result.
CCCCC/C=C\C\C=C/C=C/C=C/[C@@H](SC[C@H](N)C(=O)NCC(=O)O)[C@@H](O)CCCC(=O)O = 238.7
Nc1ncnc2c1ncn2[C@@H]1O[C@H](COP(=O)(O)OP(=O)(O)O)[C@@H](O)[C@H]1O [Adenosine 5' Diphosphate] = 196.92

The reported collision cross section (N2) of the compound C[C@@H]1OC(O)[C@@H](O)[C@H](O)[C@@H]1O (some centres not stated) was 147.32

Recorded result, O=C[C@H](O)[C@H](O)COP(=O)(O)O [D-Erythrose 4-Phosphate] , collision cross section (N2): 153.89

Reported collision cross section (N2) of CCCCCC(=O)/C=C/C=C/CCCCCCCC(=O)O : 193.37

Short answer for C[C@@H]1O[C@@H](O[C@H]2C(=O)c3c(O)cc(O)cc3O[C@@H]2c2ccc(O)c(O)c2)[C@H](O)[C@H](O)[C@H]1O : collision cross section (N2) was 212.64

The reported value for C[C@]12CCC(=O)C=C1CC[C@@H]1[C@@H]2[C@@H](O)C[C@]2(C=O)[C@@H](C(=O)CO)CC[C@@H]12 in terms of collision cross section (N2) is 204.09
